Listing of entries alongside the reported Dmax.
- Test target: MerTK (Homo sapiens, UniProt Q12866)
- Construct: endogenous in cells; host or cells: Jurkat cells
- Sequence (Q12866 21-999): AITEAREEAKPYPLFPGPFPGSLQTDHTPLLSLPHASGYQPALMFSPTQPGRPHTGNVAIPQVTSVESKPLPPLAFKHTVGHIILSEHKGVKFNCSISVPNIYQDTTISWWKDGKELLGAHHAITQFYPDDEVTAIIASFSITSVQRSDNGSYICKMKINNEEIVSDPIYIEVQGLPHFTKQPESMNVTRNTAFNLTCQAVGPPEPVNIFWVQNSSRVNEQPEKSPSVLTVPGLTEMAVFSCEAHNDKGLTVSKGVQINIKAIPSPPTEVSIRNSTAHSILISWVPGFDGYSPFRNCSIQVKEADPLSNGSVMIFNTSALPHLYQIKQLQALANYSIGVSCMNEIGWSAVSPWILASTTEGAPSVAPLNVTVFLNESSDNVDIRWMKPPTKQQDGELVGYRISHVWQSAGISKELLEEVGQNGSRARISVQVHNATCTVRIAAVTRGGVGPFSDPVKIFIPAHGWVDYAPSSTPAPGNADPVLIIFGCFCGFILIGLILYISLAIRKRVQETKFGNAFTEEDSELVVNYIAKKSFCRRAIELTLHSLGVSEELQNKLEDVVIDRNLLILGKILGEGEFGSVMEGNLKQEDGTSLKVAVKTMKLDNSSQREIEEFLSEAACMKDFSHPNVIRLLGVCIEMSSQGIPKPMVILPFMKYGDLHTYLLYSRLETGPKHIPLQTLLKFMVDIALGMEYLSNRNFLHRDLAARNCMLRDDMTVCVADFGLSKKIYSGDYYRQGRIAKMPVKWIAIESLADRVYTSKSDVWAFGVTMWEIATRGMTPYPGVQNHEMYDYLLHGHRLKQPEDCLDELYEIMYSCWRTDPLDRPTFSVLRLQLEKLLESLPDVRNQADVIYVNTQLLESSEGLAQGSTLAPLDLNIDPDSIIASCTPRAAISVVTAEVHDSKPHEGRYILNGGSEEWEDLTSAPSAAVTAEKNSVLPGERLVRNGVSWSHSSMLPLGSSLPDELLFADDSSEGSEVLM
- Experimental protocol: MerTk degradation in Jurkat cells (Western blot)
- Format: cell-based
- Condition description: Jurkat, 4 h, 0.001-1 μM, 4 hour-incubation at 37° C., read-out: Jurkat Max % MerTK Degradation

Record excerpt, results attached:
Lab note: "CCCCNc1ncc2c(-c3ccc(CN4CCN(CCOCCOCCOCCOCCCc5ccc6c(c5)n(C)c(=O)n6[C@H]5CCC(=O)NC5=O)CC4)cc3)cn(C3CCCCC3)c2n1" gave Dmax of > 50%

Input "CCCCNc1ncc2c(-c3ccc(CNCCCc4ccc5c(c4)n(C)c(=O)n5[C@H]4CCC(=O)NC4=O)cc3)cn([C@H]3CC[C@H](O)CC3)c2n1" . Output Dmax: > 50%

# molecule CCCCNc1ncc(-c2ccc(CN3CCN(CCOCCOCCOCCOCCNc4cccc5c4C(=O)N(C4CCC(=O)NC4=O)C5=O)CC3)cn2)c(N[C@H]2CC[C@H](O)CC2)n1 (some centres unmarked) ; its Dmax = > 50%

So for Cn1c(=O)n(C2CCC(=O)NC2=O)c2ccc(CCCOCC(F)CN3CCN(Cc4ccc(-c5cn([C@H]6CC[C@H](O)CC6)c6nc(NCCC(F)(F)F)ncc56)cc4)CC3)cc21 (some centres unmarked) , the logged Dmax turned out to be > 50%

Measured Dmax of "Cn1c(=O)n([C@H]2CCC(=O)NC2=O)c2cccc(CCCOCCCN3CCN(Cc4ccc(-c5cn([C@H]6CC[C@H](O)CC6)c6nc(NCCC(F)(F)F)ncc56)cc4)CC3)c21" : > 50%

// C[C@H](Nc1ncc2c(-c3ccc(CN4CCN(CCCCOCCCc5ccc6c(c5)n(C)c(=O)n6C5CCC(=O)NC5=O)CC4)cc3)cn([C@H]3CC[C@H](O)CC3)c2n1)C(F)F (some centres unmarked) : Dmax value = > 50%

Entry "Cn1c(=O)n([C@H]2CCC(=O)NC2=O)c2ccc(CCCOCCCN3CCN(Cc4ccc(-c5cn([C@H]6CC[C@](C)(O)CC6)c6nc(NCCC(F)(F)F)ncc56)cc4)CC3)cc21" ; Dmax = > 50%

Briefly, Dmax measured for CCCCNc1ncc2c(-c3ccc(CN4CCN(CCOCCOCCOCCCc5ccc6c(c5)n(C)c(=O)n6C5CCC(=O)NC5=O)CC4)cc3)cn([C@H]3CC[C@H](O)CC3)c2n1 (some centres unmarked) : > 50%

***
Form: molecule = "O=C1CC[C@H](n2c3cc(CCCOCCOCCN4CCN(Cc5ccc(-c6cn([C@H]7CC[C@H](O)CC7)c7nc(NCCC(F)(F)F)ncc67)cc5)CC4)ccc3c3cccnc32)C(=O)N1" ; Dmax = 20 to 50%

Kindly note the recorded Dmax for CCCCNc1ncc2c(-c3ccc(S(=O)(=O)N4CCN(C(=O)NCCCOCCCOCCCc5cccc6c5n(C)c(=O)n6C5CCC(=O)NC5=O)CC4)cc3)nn([C@H]3CC[C@H](O)CC3)c2n1 (some centres unmarked) , which is > 50%
